Values compiled from patent US20100260765A1.

target: T1, soluble KDR Ig4-7 domain (human, UniProt P35968 328-764); test: ELISA, KDR Ig4-7 coat (1:1 diln.), antibody 0.01 ug/mL
T1 construct: domain: Ig4-7 domain; also called b-KDRIg4-7-myc-his; Ig4-7 domain of KDR; not shown: myc-his tag of the pSecTag construct
T1 sequence (P35968 328-764): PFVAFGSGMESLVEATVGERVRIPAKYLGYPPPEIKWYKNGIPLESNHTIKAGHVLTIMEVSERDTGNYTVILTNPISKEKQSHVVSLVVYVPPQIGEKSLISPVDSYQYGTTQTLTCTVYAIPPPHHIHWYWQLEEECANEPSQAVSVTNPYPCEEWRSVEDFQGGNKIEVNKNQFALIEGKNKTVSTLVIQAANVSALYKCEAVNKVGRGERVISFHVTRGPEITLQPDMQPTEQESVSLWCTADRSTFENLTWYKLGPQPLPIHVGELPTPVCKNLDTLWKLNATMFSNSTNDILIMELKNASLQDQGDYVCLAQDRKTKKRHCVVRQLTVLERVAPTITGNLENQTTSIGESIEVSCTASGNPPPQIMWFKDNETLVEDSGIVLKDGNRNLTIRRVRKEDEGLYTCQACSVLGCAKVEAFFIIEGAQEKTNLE
Listed next: entries and their corresponding ELISA reading.

1) 33C3 (antibody, V domains shown, Fully human monoclonal antibody from a XenoMouse hybridoma (IgG2 or IgG4 strain), purified) VH: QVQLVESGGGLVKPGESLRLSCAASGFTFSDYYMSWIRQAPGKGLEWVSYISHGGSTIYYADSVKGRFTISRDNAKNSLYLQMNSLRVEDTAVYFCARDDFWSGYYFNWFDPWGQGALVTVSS VL: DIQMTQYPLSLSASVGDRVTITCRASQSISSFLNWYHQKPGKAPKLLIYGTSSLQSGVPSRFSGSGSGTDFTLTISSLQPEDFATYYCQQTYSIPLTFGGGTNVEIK; 0.073
2) 32G7 (antibody, V domains shown, Fully human monoclonal antibody from a XenoMouse hybridoma (IgG2 or IgG4 strain), purified) VH: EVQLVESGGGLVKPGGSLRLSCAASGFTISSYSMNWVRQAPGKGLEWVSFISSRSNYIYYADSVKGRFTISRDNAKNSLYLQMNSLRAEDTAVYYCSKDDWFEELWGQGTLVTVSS VL: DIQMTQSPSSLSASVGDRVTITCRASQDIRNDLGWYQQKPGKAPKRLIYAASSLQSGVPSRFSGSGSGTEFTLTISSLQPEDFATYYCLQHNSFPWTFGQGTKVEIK; 0.933

Lookup result for 27A3 (antibody, V domains shown, Fully human monoclonal antibody from a XenoMouse hybridoma (IgG2 or IgG4 strain), purified) VH: QLQLQESGPGLVKPSETLSLTCTVSGGSISSRSDYWGWIRQPPGKGLEWIGTIYYSGDTYYNPSLKSRVTISVDTSKNQFSLKLSSVTAADTAVYYCARQQLVLYYFDYWGQGTLVTVSS VL: EIVLTQSPGTLSLSPGERATLSCRASQSVSSSYLAWYQQKPGQAPRLLIYATSNRATGIPDRFSGSGSGTDFTLTISRLEPEDFAVYYCQQHGSSPPLTFGGGTKVEIK ; measured ELISA reading: 0.08
